# Experimental System: Human GPR120 short form (Homo sapiens, UniProt Q5NUL3)
# Construct: expressed in transfected cells
# Sequence (Q5NUL3 whole entry): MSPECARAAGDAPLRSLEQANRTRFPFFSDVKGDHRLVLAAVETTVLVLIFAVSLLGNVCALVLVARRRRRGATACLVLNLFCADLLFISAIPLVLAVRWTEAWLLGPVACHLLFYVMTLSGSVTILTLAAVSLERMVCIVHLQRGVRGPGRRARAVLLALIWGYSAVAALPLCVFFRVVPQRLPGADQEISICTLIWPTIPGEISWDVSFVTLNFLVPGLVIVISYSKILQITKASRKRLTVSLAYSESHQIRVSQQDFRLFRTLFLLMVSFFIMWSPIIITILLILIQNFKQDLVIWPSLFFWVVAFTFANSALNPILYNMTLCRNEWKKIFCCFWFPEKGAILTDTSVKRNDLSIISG
# Test Description: Human GPR120 calcium flux assay, Procedure Calcium B (4200 cells/well)
# Format: cell-based
pEC50: −log10 of the molar value.
Quantity Measured: pEC50

Below, 2 compounds whose answers are already recorded.
O=C(O)CCc1ccc(OCC2=C(C3CCCC3)CCC2)cc1C(F)(F)C(F)(F)F [Compound 446] | 6.08
O=C(O)CCc1cc(F)c(OCC2=C(c3cccs3)CC(F)(F)C2)c(F)c1 [Compound 201] | 6.10

(1) Cc1cc(OCC2=C(Cc3ccccc3)CCC2)c(F)cc1CCC(=O)O [Compound 314]
(2) CCCC1=C(COc2ccc(CCC(=O)O)c(C(F)(F)F)c2)CCCC1 [Compound 590]
Pick the one with the larger pEC50: 1 vs 2 The response must carry the label of the picked entry. 1
(1: 6.12, 2: 5.87)
